- assay_remarks: collision cross section (TIMS, N2 drift gas) of the primary ion; higher = larger gas-phase ion size
- conditions_used: ionization mode: ESI+; ion species: [M+H]+
Task for the reader: assign each of the following molecules its reported collision cross section.
Numbers only, in Å².

INSERT INTO measurements (molecule, reported_result) VALUES
  ('CC1CN(C2CCCCCCCCCCC2)CC(C)O1 (centres undefined) [Dodemorph]', 175.75);

Hi! Can you tell me collision cross section for each of these molecules?
1. CC(O)(CS(=O)(=O)c1ccc(F)cc1)C(=O)Nc1ccc(C#N)c(C(F)(F)F)c1 (centres undefined) [Bicalutamide]
2. CNC(=O)Oc1cccc2c1OC(C)(C)C2 [Carbofuran]
3. CC(C)(C)c1cc(CCC(=O)NCCCCCCNC(=O)CCc2cc(C(C)(C)C)c(O)c(C(C)(C)C)c2)cc(C(C)(C)C)c1O
4. COc1ccc2c(c1)[C@]13CCCC[C@@H]1[C@H](C2)N(C)CC3 [Dextromethorphan]
5. CCCCC(CC)COP(=O)(O)OCC(CC)CCCC (centres undefined) [Bis(2-ethylhexyl)phosphate]
6. Nc1nc(=O)c2ncn(COCC(=O)O)c2[nH]1 [Carboxy-aciclovir]
7. CCCCNc1ccc(C(=O)OCCN(C)C)cc1 [Tetracain]

1: 205.43; 2: 147.19; 3: 263.68; 4: 166.66; 5: 223.46; 6: 150.15; 7: 173.87

# input molecule: COc1cc2ccc(=O)oc2c(OC)c1OC [Dimethylfraxetin] ; wanted: its collision cross section 147.68

----------
- assay_remarks: collision cross section (TIMS, N2 drift gas) of the primary ion; higher = larger gas-phase ion size
- conditions_used: ionization mode: ESI-; ion species: [M-H]-
reported_property: collision cross section (Å²)
Give bare numbers, in Å².

Report collision cross section for every entry below.
1. Cc1nccc2c1[nH]c1ccccc12 [Harman]
2. CCCSc1ccc2[nH]c(NC(=O)OC)nc2c1 [Albendazole]
3. CN(C)S(=O)(=O)c1ccc(N)cc1 [4-Amino-N,N-dimethylbenzenesulfonamide]
4. CCCCCCCCCCCCc1ccccc1S(=O)(=O)O [Dodecylbenzenesulfonic acid]
5. CC(C)(C(=O)O)c1ccc(C(O)CCCN2CCC(C(O)(c3ccccc3)c3ccccc3)CC2)cc1 (configuration not stated) [Fexofenadine]
6. C[C@H](O)C(=O)Nc1c(I)c(C(=O)NC(CO)CO)c(I)c(C(=O)NC(CO)CO)c1I [Iopamidol]
7. CC(C)(C)NC(=O)[C@H]1CC[C@H]2[C@@H]3CC[C@H]4NC(=O)C=C[C@]4(C)[C@H]3CC[C@]12C [Finasteride]
8. CCCCc1nc(Cl)c(CO)n1Cc1ccc(-c2ccccc2-c2nn[nH]n2)cc1 [Losartan]

[135.7, 165.62, 137.21, 185.13, 224.37, 206.33, 198.56, 204]

Provide each entry's collision cross section from the list below.
1. CCc1cccc(C)c1N(C(=O)CS(=O)(=O)O)[C@@H](C)C(=O)O
2. CC(c1ccc(O)cc1)(c1ccc(O)cc1)c1ccc(O)cc1 [1,1,1-Tris(4-hydroxyphenyl)ethane]
3. CC(C)(c1ccccc1)c1ccc(O)cc1 [4-Cumylphenol]
4. Oc1cc(-c2ccc(Cl)cc2)ccc1Cl [3-Hydroxy-4,4'-dichlorobiphenyl]

1: 167.47; 2: 183.23; 3: 156.38; 4: 149.63

Provide the reported collision cross section of each entry below, same order.
1. O=C(O)c1ccccc1C(=O)OCc1ccccc1 [Monobenzyl phthalate]
2. Cc1cccc(C)c1N(Cn1cccn1)C(=O)CS(=O)CC(=O)O (configuration not stated) [Metazachlor BH 479-9]
3. O=C(NC(=O)c1c(F)cccc1F)Nc1ccc(Oc2ccc(C(F)(F)F)cc2Cl)cc1F [Flufenoxuron]
4. CC(Oc1ccc(Oc2ncc(C(F)(F)F)cc2Cl)cc1)C(=O)O (configuration not stated) [Haloxyfop-P]
5. COc1cc(OC)nc(NC(=O)NS(=O)(=O)c2ncccc2C(=O)N(C)C)n1 [Nicosulfuron]
6. CCC1(C2OC(C3OC(O)(CO)C(C)CC3C)CC2C)CCC(C2(C)CCC3(CC(O)C(C)C(C(C)C(OC)C(C)C(=O)O)O3)O2)O1 (configuration not stated) [Monensin]
7. COc1cc(NS(=O)(=O)c2ccc(N)cc2)nc(OC)n1 [Sulfadimethoxine]
8. CCC(C)C(=O)OC1CC(O)C=C2C=CC(C)C(CCC(O)CC(O)CC(=O)O)C21 (configuration not stated) [Pravastatin]

159.96
178.82
215.68
190.86
194.5
244.26
170.58
203.46

Please give collision cross section for each item listed below.
1. O=C(O)CCCCCCCCC(=O)O [Sebacic acid]
2. CCc1ccc(CCOc2ccc(CC3SC(=O)NC3=O)cc2)nc1 (configuration not stated) [Pioglitazone]

1. 142.73
2. 176.43

----------
- assay_remarks: reversed-phase LC retention time (C18, 15 min MeOH gradient); higher = more hydrophobic / later elution
- conditions_used: ionization mode: ESI+; ion species: [M+H]+
Please respond with reported reversed-phase LC retention time for every item in the list.
Numbers only, in min.

INSERT INTO assay_data (compound, reported_result) VALUES
  ('COC(=O)N(OC)c1ccccc1COc1ccn(-c2ccc(Cl)cc2)n1', 15.8);

Field: reversed-phase LC retention time. Fill in for each record below.
1. c1ccc(/N=N/c2ccccc2)cc1
2. COc1c(C)c2c(c(O)c1C/C=C(\C)CCC(=O)O)C(=O)OC2
3. CCOc1nc2cccc(C(=O)O)c2n1Cc1ccc(-c2ccccc2-c2nnn[nH]2)cc1

1: 13.1; 2: 13.4; 3: 13.3

Hi team, please reply with reversed-phase LC retention time for each item in this list.
1. O=C(Nc1ccccc1)NC1CCCCC1
2. CC(=O)N1CCN(c2ccc(OC[C@H]3CO[C@](Cn4ccnc4)(c4ccc(Cl)cc4Cl)O3)cc2)CC1
3. COc1ccc(C(=O)c2ccccc2)c(O)c1
4. C#C[C@]1(OC(C)=O)CC[C@H]2[C@@H]3CCC4=C/C(=N/O)CC[C@@H]4[C@H]3CC[C@@]21CC [Norgestimate]
5. COc1cc(OC)nc(NC(=O)NS(=O)(=O)c2ncccc2C(=O)N(C)C)n1
6. Cc1cccc(C)c1N(Cn1cccn1)C(=O)CS(C)=O (stereo not given)
7. CC(C)NCC(O)c1ccc(NS(C)(=O)=O)cc1 (stereo not given)

[13.2, 13.2, 15.1, 16.3, 11.4, 10.3, 5.7]

Each compound below has a reported value. Please supply its reversed-phase LC retention time.
1. COCC(=O)Nc1c(I)c(C(=O)NCC(O)CO)c(I)c(C(=O)N(C)CC(O)CO)c1I (stereo not given) [Iopromide]
2. Cc1cc(=O)[nH]c(C(C)C)n1
3. Cc1cc(Cl)ccc1/N=C/N(C)C [Chlordimeform]

1. 6.66
2. 7.51
3. 8.19

I have 2 compounds here; please give me reversed-phase LC retention time for each one.
1. CN(C)C(=O)Nc1ccccc1
2. Cc1nc2n(c(=O)c1CCN1CCC(c3noc4cc(F)ccc34)CC1)CCCC2

[8.82, 10.4]

----------
- assay_remarks: reversed-phase LC retention time (C18, 15 min MeOH gradient); higher = more hydrophobic / later elution
- conditions_used: ionization mode: ESI+; ion species: [M+H]+
reported_property: reversed-phase LC retention time
Kindly format the answer as number then unit.

Worked examples follow.
INSERT INTO results (compound, reported_result) VALUES
  ('CCOCCN(C(=O)CCl)C(=C(C)C)c1ccccc1', '14.9 min'),
  ('Cn1c(N)nc2c3cccnc3ccc21 [2-Amino-3-methyl-imidazo[4,5-f]quinoline (IQ)]', '6.04 min'),
  ('COc1cc2c(c3oc(=O)c4c(c13)CCC4=O)C1C=COC1O2 (centres undefined)', '11.4 min'),
  ('C#CCOS(=O)OC1CCCCC1Oc1ccc(C(C)(C)C)cc1 (centres undefined)', '17.4 min'),
  ('Clc1ccc(COC(Cn2ccnc2)c2ccc(Cl)cc2Cl)c(Cl)c1 (centres undefined)', '15.6 min'),
  ('CC(C)Oc1cccc(NC(=O)c2ccccc2C(F)(F)F)c1', '14.3 min'),
  ('CCCN(CC)CC1COC2(CCC(C(C)(C)C)CC2)O1 (centres undefined)', '14.2 min'),
  ('Nc1nc(=O)n([C@@H]2CS[C@H](CO)O2)cc1F', '5.75 min');

Query compound follows.
# reversed-phase LC retention time lookup, item CCC(C)(CC)c1cc(NC(=O)c2c(OC)cccc2OC)on1 14.3 min

Hey, just so you know, these numbers are from the supplement of paper PMC12613149.
